// data source = patent US20120270929A1

Experiment: Liver function: plasma transaminases (ALT, AST) in C57BL/6 mice
Format: in vivo, mouse
Details: Week 6, 50 mg/kg/week
Procedure: Four groups of five mice each were injected twice a week with 25 mg/kg (totaling 50 mg/kg/week) of ISIS 447114, ISIS 447118, ISIS 447143, or ISIS 447144 for 6 weeks. A control group of five mice was injected with phosphate buffered saline (PBS) twice a week for 6 weeks. […] To evaluate the impact of ISIS oligonucleotides on the hepatic function of the mice described above, plasma concentrations of transaminases were measured using an automated clinical chemistry analyzer (Olympus Clinical Analyzer). […]
Oligonucleotides are written 5' to 3', each unit as a sugar letter and its base; * is a phosphorothioate linkage, no mark a phosphodiester; rarer units and linkages stand in square brackets, end groups in braces. Plain capitals give the bases only. e = 2'-O-(2-methoxyethyl) (MOE); [5mC] = 5-methylcytosine; d = 2'-deoxy (DNA)
quantity: AST levels

1) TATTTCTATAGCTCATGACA (antisense eT*eA*eT*eT*eT*d[5mC]*dT*dA*dT*dA*dG*d[5mC]*dT*d[5mC]*dA*eT*eG*eA*e[5mC]*eA) [ISIS 447144]    113 IU/L
2) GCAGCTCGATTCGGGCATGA (antisense eG*e[5mC]*eA*eG*e[5mC]*dT*d[5mC]*dG*dA*dT*dT*d[5mC]*dG*dG*dG*e[5mC]*eA*eT*eG*eA) [ISIS 447118]    127 IU/L
3) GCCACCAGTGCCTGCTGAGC (antisense eG*e[5mC]*e[5mC]*eA*e[5mC]*d[5mC]*dA*dG*dT*dG*d[5mC]*d[5mC]*dT*dG*d[5mC]*eT*eG*eA*eG*e[5mC]) [ISIS 447143]    73 IU/L
4) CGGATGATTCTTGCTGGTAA (antisense e[5mC]*eG*eG*eA*eT*dG*dA*dT*dT*d[5mC]*dT*dT*dG*d[5mC]*dT*eG*eG*eT*eA*eA) [ISIS 447114]    93 IU/L

====

Test system: murine TTC39C mRNA
Experiment: Dose-dependent antisense inhibition of murine TTC39C in mouse primary hepatocytes
Format: cell-based
Settings: 8000.0 nM, electroporation, ~16 h
Oligonucleotides are written 5' to 3', each unit as a sugar letter and its base; * is a phosphorothioate linkage, no mark a phosphodiester; rarer units and linkages stand in square brackets, end groups in braces. Plain capitals give the bases only. e = 2'-O-(2-methoxyethyl) (MOE); [5mC] = 5-methylcytosine; d = 2'-deoxy (DNA)
# maps each entry to its percent inhibition of TTC39C mRNA
quantity: percent inhibition of TTC39C mRNA (%)

1) ISIS 474589: 5-10-5 MOE gapmer antisense oligonucleotide targeting murine TTC39C (antisense eT*e[5mC]*e[5mC]*eG*eA*dA*dA*dT*d[5mC]*dG*d[5mC]*dT*d[5mC]*dA*dG*e[5mC]*e[5mC]*eT*eG*e[5mC])    100
2) ISIS 474615: 5-10-5 MOE gapmer antisense oligonucleotide targeting murine TTC39C (antisense eG*eT*eA*e[5mC]*eG*dA*dG*dT*dT*dA*d[5mC]*dT*d[5mC]*dT*dG*e[5mC]*e[5mC]*eG*eA*e[5mC])    98
3) ISIS 474609: 5-10-5 MOE gapmer antisense oligonucleotide targeting murine TTC39C (antisense e[5mC]*eG*eT*eA*eG*dT*dA*dG*d[5mC]*dA*d[5mC]*dT*dG*dG*dG*eA*e[5mC]*e[5mC]*eA*e[5mC])    97
4) ISIS 474516: 5-10-5 MOE gapmer antisense oligonucleotide targeting murine TTC39C (antisense eT*eT*eA*eG*eT*dG*dG*dA*d[5mC]*dT*dA*dT*dG*dA*dT*eT*eT*e[5mC]*eT*eG)    95
5) ISIS 474601: 5-10-5 MOE gapmer antisense oligonucleotide targeting murine TTC39C (antisense eG*eG*e[5mC]*e[5mC]*eA*dT*dA*dT*d[5mC]*d[5mC]*dA*dA*dA*dG*d[5mC]*eT*e[5mC]*eA*e[5mC]*eA)    92
6) ISIS 474598: 5-10-5 MOE gapmer antisense oligonucleotide targeting murine TTC39C (antisense e[5mC]*e[5mC]*e[5mC]*eA*e[5mC]*d[5mC]*dT*dT*dT*dT*dA*dT*dG*dT*dA*eG*eG*e[5mC]*e[5mC]*eG)    94
7) ISIS 474543: 5-10-5 MOE gapmer antisense oligonucleotide targeting murine TTC39C (antisense e[5mC]*e[5mC]*eA*eG*eG*dT*dG*dG*d[5mC]*dT*dT*dT*dG*dG*d[5mC]*eT*eT*eG*eG*eG)    94
8) ISIS 474517: 5-10-5 MOE gapmer antisense oligonucleotide targeting murine TTC39C (antisense e[5mC]*e[5mC]*eT*e[5mC]*eG*dA*dA*dT*dG*dT*d[5mC]*dA*dT*d[5mC]*dA*eT*eG*eG*e[5mC]*eG)    97

====

Assay: Body and organ weights in C57BL/6 mice
Assay type: in vivo, mouse
Conditions: 50 mg/kg/week, 6 weeks
Oligonucleotides are written 5' to 3', each unit as a sugar letter and its base; * is a phosphorothioate linkage, no mark a phosphodiester; rarer units and linkages stand in square brackets, end groups in braces. Plain capitals give the bases only. e = 2'-O-(2-methoxyethyl) (MOE); [5mC] = 5-methylcytosine; d = 2'-deoxy (DNA)
quantity: Liver weight after treatment

1. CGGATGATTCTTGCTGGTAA (antisense e[5mC]*eG*eG*eA*eT*dG*dA*dT*dT*d[5mC]*dT*dT*dG*d[5mC]*dT*eG*eG*eT*eA*eA) [ISIS 447114]    1.3 g
2. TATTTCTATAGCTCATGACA (antisense eT*eA*eT*eT*eT*d[5mC]*dT*dA*dT*dA*dG*d[5mC]*dT*d[5mC]*dA*eT*eG*eA*e[5mC]*eA) [ISIS 447144]    1.3 g
3. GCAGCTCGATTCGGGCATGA (antisense eG*e[5mC]*eA*eG*e[5mC]*dT*d[5mC]*dG*dA*dT*dT*d[5mC]*dG*dG*dG*e[5mC]*eA*eT*eG*eA) [ISIS 447118]    1.4 g
4. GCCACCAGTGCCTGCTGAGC (antisense eG*e[5mC]*e[5mC]*eA*e[5mC]*d[5mC]*dA*dG*dT*dG*d[5mC]*d[5mC]*dT*dG*d[5mC]*eT*eG*eA*eG*e[5mC]) [ISIS 447143]    1.5 g

====

Assay: Liver function: plasma transaminases (ALT, AST) in C57BL/6 mice
Type: in vivo, mouse
Conditions: Week 3, 50 mg/kg/week
Oligonucleotides are written 5' to 3', each unit as a sugar letter and its base; * is a phosphorothioate linkage, no mark a phosphodiester; rarer units and linkages stand in square brackets, end groups in braces. Plain capitals give the bases only. e = 2'-O-(2-methoxyethyl) (MOE); [5mC] = 5-methylcytosine; d = 2'-deoxy (DNA)
quantity: AST levels

1. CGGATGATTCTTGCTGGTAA (antisense e[5mC]*eG*eG*eA*eT*dG*dA*dT*dT*d[5mC]*dT*dT*dG*d[5mC]*dT*eG*eG*eT*eA*eA) [ISIS 447114]    29 IU/L
2. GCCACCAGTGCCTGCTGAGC (antisense eG*e[5mC]*e[5mC]*eA*e[5mC]*d[5mC]*dA*dG*dT*dG*d[5mC]*d[5mC]*dT*dG*d[5mC]*eT*eG*eA*eG*e[5mC]) [ISIS 447143]    31 IU/L
3. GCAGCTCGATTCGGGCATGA (antisense eG*e[5mC]*eA*eG*e[5mC]*dT*d[5mC]*dG*dA*dT*dT*d[5mC]*dG*dG*dG*e[5mC]*eA*eT*eG*eA) [ISIS 447118]    39 IU/L
4. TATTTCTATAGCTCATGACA (antisense eT*eA*eT*eT*eT*d[5mC]*dT*dA*dT*dA*dG*d[5mC]*dT*d[5mC]*dA*eT*eG*eA*e[5mC]*eA) [ISIS 447144]    31 IU/L

====

Test system: murine TTC39C mRNA
Test: Dose-dependent antisense inhibition of murine TTC39C in mouse primary hepatocytes
Type: cell-based
Conditions: mouse primary hepatocytes, electroporation, ~16 h
Oligonucleotides are written 5' to 3', each unit as a sugar letter and its base; * is a phosphorothioate linkage, no mark a phosphodiester; rarer units and linkages stand in square brackets, end groups in braces. Plain capitals give the bases only. e = 2'-O-(2-methoxyethyl) (MOE); [5mC] = 5-methylcytosine; d = 2'-deoxy (DNA)
Categories are assigned from the measured IC50 using these intervals: lo (below 600 nM), med (600 nM to below 1000 nM), hi (1000 nM or more)

1. ISIS 474662: 5-10-5 MOE gapmer antisense oligonucleotide targeting murine TTC39C (antisense eG*eG*eA*eT*eT*dT*d[5mC]*d[5mC]*dG*dG*dG*d[5mC]*dA*dT*d[5mC]*eA*eA*e[5mC]*e[5mC]*eT)    hi
2. ISIS 474521: 5-10-5 MOE gapmer antisense oligonucleotide targeting murine TTC39C (antisense eG*eG*e[5mC]*eT*eT*dT*d[5mC]*d[5mC]*dT*dA*dA*dG*dG*dA*dT*e[5mC]*e[5mC]*eA*e[5mC]*e[5mC])    lo
3. ISIS 474540: 5-10-5 MOE gapmer antisense oligonucleotide targeting murine TTC39C (antisense e[5mC]*e[5mC]*eA*e[5mC]*eT*dG*dG*dG*dA*dG*dT*dT*dT*dA*dT*e[5mC]*eA*e[5mC]*eT*eG)    lo
4. ISIS 474535: 5-10-5 MOE gapmer antisense oligonucleotide targeting murine TTC39C (antisense eT*e[5mC]*e[5mC]*eA*e[5mC]*dT*dT*d[5mC]*dA*dT*dG*dG*d[5mC]*dA*dA*eG*e[5mC]*eT*eT*eG)    hi
5. ISIS 474629: 5-10-5 MOE gapmer antisense oligonucleotide targeting murine TTC39C (antisense eG*eA*eT*e[5mC]*eA*d[5mC]*dT*dG*d[5mC]*d[5mC]*dG*dT*d[5mC]*d[5mC]*dA*eA*eA*eG*e[5mC]*eA)    hi
6. ISIS 474654: 5-10-5 MOE gapmer antisense oligonucleotide targeting murine TTC39C (antisense eT*e[5mC]*eA*eG*e[5mC]*dT*dA*d[5mC]*dA*dG*dA*dA*d[5mC]*dG*d[5mC]*eA*eG*eG*eG*eT)    hi
7. ISIS 474607: 5-10-5 MOE gapmer antisense oligonucleotide targeting murine TTC39C (antisense eT*e[5mC]*eA*eA*eT*d[5mC]*dA*dT*dG*d[5mC]*dT*dG*d[5mC]*dA*d[5mC]*e[5mC]*eA*eG*e[5mC]*e[5mC])    lo
8. ISIS 474617: 5-10-5 MOE gapmer antisense oligonucleotide targeting murine TTC39C (antisense eA*eG*eT*eT*e[5mC]*d[5mC]*d[5mC]*dT*dT*dA*dG*dG*dG*dA*dG*eG*e[5mC]*e[5mC]*eA*eG)    med
9. ISIS 474516: 5-10-5 MOE gapmer antisense oligonucleotide targeting murine TTC39C (antisense eT*eT*eA*eG*eT*dG*dG*dA*d[5mC]*dT*dA*dT*dG*dA*dT*eT*eT*e[5mC]*eT*eG)    med
10. ISIS 474615: 5-10-5 MOE gapmer antisense oligonucleotide targeting murine TTC39C (antisense eG*eT*eA*e[5mC]*eG*dA*dG*dT*dT*dA*d[5mC]*dT*d[5mC]*dT*dG*e[5mC]*e[5mC]*eG*eA*e[5mC])    med
11. ISIS 474613: 5-10-5 MOE gapmer antisense oligonucleotide targeting murine TTC39C (antisense eT*eG*e[5mC]*eT*eT*dT*dA*dA*dT*d[5mC]*d[5mC]*dA*dA*d[5mC]*dG*eA*e[5mC]*eA*eG*eA)    hi
12. ISIS 474538: 5-10-5 MOE gapmer antisense oligonucleotide targeting murine TTC39C (antisense eT*eA*eG*e[5mC]*eA*d[5mC]*dG*d[5mC]*dA*dT*dA*dT*dG*dG*d[5mC]*eG*eG*eG*eA*e[5mC])    lo
